# Target entity: UBE2I
# Test details: reporter assay of Huesken 2005
# Condition details: siRNA
Oligonucleotides are written 5' to 3', each unit as a sugar letter and its base; * is a phosphorothioate linkage, no mark a phosphodiester; rarer units and linkages stand in square brackets, end groups in braces. Plain capitals give the bases only. d = 2'-deoxy (DNA); r = 2'-OH (RNA)
Reported metric: normalised inhibition (eCFP-eYFP dual reporter)

Substance: sense rUrUrArArArCrUrArCrGrGrArUrGrCrUrUrUrUdTdT / antisense rArArArArGrCrArUrCrCrGrUrArGrUrUrUrArAdAdC
Value measured: 50.2%
--
Substance: sense rCrGrArUrGrArArCrCrUrCrArUrGrArArCrUrGdTdT / antisense rCrArGrUrUrCrArUrGrArGrGrUrUrCrArUrCrGdTdG
Value measured: 78.2%
--
Substance: sense rUrUrCrArArArGrArUrGrArUrUrArUrCrCrArUdTdT / antisense rArUrGrGrArUrArArUrCrArUrCrUrUrUrGrArAdAdA
Value measured: 65.2%
--
Substance: sense rCrArGrArGrGrCrCrUrArCrArCrGrArUrUrUrAdTdT / antisense rUrArArArUrCrGrUrGrUrArGrGrCrCrUrCrUrGdCdT
Value measured: 83.8%
--
Substance: sense rUrGrGrGrArArGrGrArGrGrCrUrUrGrUrUrUrAdTdT / antisense rUrArArArCrArArGrCrCrUrCrCrUrUrCrCrCrAdCdG
Value measured: 78%
--
Substance: sense rCrCrUrUrCrGrGrGrGrArCrArGrUrGrUrGrCrCdTdT / antisense rGrGrCrArCrArCrUrGrUrCrCrCrCrGrArArGrGdGdT
Value measured: 51.1%
--
Substance: sense rGrArGrUrGrCrGrCrCrArUrUrCrCrArGrGrArAdTdT / antisense rUrUrCrCrUrGrGrArArUrGrGrCrGrCrArCrUrCdCdC
Value measured: 72.6%
--
Substance: sense rGrCrArCrGrArUrGrArArCrCrUrCrArUrGrArAdTdT / antisense rUrUrCrArUrGrArGrGrUrUrCrArUrCrGrUrGrCdCdA
Value measured: 84.4%
--
Substance: sense rArCrCrArArArUrArUrCrCrArArGrArCrCrCrAdTdT / antisense rUrGrGrGrUrCrUrUrGrGrArUrArUrUrUrGrGrUdTdC
Value measured: 83.9%
--
Substance: sense rCrArArGrArCrCrCrArGrCrUrCrArArGrCrArGdTdT / antisense rCrUrGrCrUrUrGrArGrCrUrGrGrGrUrCrUrUrGdGdA
Value measured: 75.8%
--
Substance: sense rUrArCrArCrGrArUrUrUrArCrUrGrCrCrArArAdTdT / antisense rUrUrUrGrGrCrArGrUrArArArUrCrGrUrGrUrAdGdG
Value measured: 92.9%
--
Substance: sense rArGrArUrCrCrUrArUrUrArGrGrArArUrArCrAdTdT / antisense rUrGrUrArUrUrCrCrUrArArUrArGrGrArUrCrUdGdT
Value measured: 90.4%
--
Substance: sense rCrUrUrCrUrArArArUrGrArArCrCrArArArUrAdTdT / antisense rUrArUrUrUrGrGrUrUrCrArUrUrUrArGrArArGdTdT
Value measured: 88.8%
--
Substance: sense rGrCrUrUrGrUrUrUrArArArCrUrArCrGrGrArUdTdT / antisense rArUrCrCrGrUrArGrUrUrUrArArArCrArArGrCdCdT
Value measured: 92.2%
--
Substance: sense rUrGrArUrUrArUrCrCrArUrCrUrUrCrGrCrCrAdTdT / antisense rUrGrGrCrGrArArGrArUrGrGrArUrArArUrCrAdTdC
Value measured: 59%
--
Substance: sense rGrArGrGrArGrGrArCrArArGrGrArCrUrGrGrAdTdT / antisense rUrCrCrArGrUrCrCrUrUrGrUrCrCrUrCrCrUrCdTdA
Value measured: 70.5%
--
Substance: sense rGrArArArGrGrGrArCrUrCrCrGrUrGrGrGrArAdTdT / antisense rUrUrCrCrCrArCrGrGrArGrUrCrCrCrUrUrUrCdTdT
Value measured: 89.3%
--
Substance: sense rArCrCrCrArUrUrUrGrGrUrUrUrCrGrUrGrGrCdTdT / antisense rGrCrCrArCrGrArArArCrCrArArArUrGrGrGrUdGdG
Value measured: 56.9%
--
Substance: sense rCrCrArGrGrArArArGrArArArGrGrGrArCrUrCdTdT / antisense rGrArGrUrCrCrCrUrUrUrCrUrUrUrCrCrUrGrGdAdA
Value measured: 54.9%
--
Substance: sense rArGrCrUrCrArArGrCrArGrArGrGrCrCrUrArCdTdT / antisense rGrUrArGrGrCrCrUrCrUrGrCrUrUrGrArGrCrUdGdG
Value measured: 89.5%
--
Substance: sense rCrCrArGrCrCrArUrCrArCrArArUrCrArArArCdTdT / antisense rGrUrUrUrGrArUrUrGrUrGrArUrGrGrCrUrGrGdCdC
Value measured: 56%
--
Substance: sense rArCrCrArUrUrArUrUrUrCrArCrCrCrGrArArUdTdT / antisense rArUrUrCrGrGrGrUrGrArArArUrArArUrGrGrUdGdG
Value measured: 88.3%
--
Substance: sense rArCrCrArArArArUrGrUrArArArUrUrCrGrArAdTdT / antisense rUrUrCrGrArArUrUrUrArCrArUrUrUrUrGrGrUdGdG
Value measured: 86.4%
--
Substance: sense rArUrUrCrCrArGrGrArArArGrArArArGrGrGrAdTdT / antisense rUrCrCrCrUrUrUrCrUrUrUrCrCrUrGrGrArArUdGdG
Value measured: 83.9%

---

# Target entity: TMEM63B
# Test details: reporter assay of Huesken 2005
# Condition details: siRNA
Oligonucleotides are given in HELM: sugar(base)linkage, 5' to 3'; d 2'-deoxyribose, r ribose, m 2'-O-methylribose, p phosphate. ss, as = sense and antisense strand
normalised inhibition (eCFP-eYFP dual reporter) of 70% or higher: 1 (yes). Under 70%: 0 (no).

Substance: RNA1{r(G)p.r(G)p.r(G)p.r(A)p.r(U)p.r(G)p.r(G)p.r(G)p.r(G)p.r(C)p.r(U)p.r(C)p.r(C)p.r(U)p.r(G)p.r(G)p.r(G)p.r(A)p.r(G)p.d(T)p.d(T)}|RNA2{r(C)p.r(U)p.r(C)p.r(C)p.r(C)p.r(A)p.r(G)p.r(G)p.r(A)p.r(G)p.r(C)p.r(C)p.r(C)p.r(C)p.r(A)p.r(U)p.r(C)p.r(C)p.r(C)p.d(C)p.d(A)}$$$RNA1{StrandType:ss}|RNA2{StrandType:as}$
Assigned class: 0 (no)

Substance: RNA1{r(C)p.r(C)p.r(A)p.r(C)p.r(U)p.r(C)p.r(C)p.r(A)p.r(G)p.r(C)p.r(C)p.r(A)p.r(U)p.r(C)p.r(A)p.r(U)p.r(C)p.r(A)p.r(U)p.d(T)p.d(T)}|RNA2{r(A)p.r(U)p.r(G)p.r(A)p.r(U)p.r(G)p.r(A)p.r(U)p.r(G)p.r(G)p.r(C)p.r(U)p.r(G)p.r(G)p.r(A)p.r(G)p.r(U)p.r(G)p.r(G)p.d(T)p.d(G)}$$$RNA1{StrandType:ss}|RNA2{StrandType:as}$
Assigned class: 1 (yes)

Substance: RNA1{r(A)p.r(A)p.r(C)p.r(G)p.r(C)p.r(C)p.r(A)p.r(U)p.r(G)p.r(G)p.r(A)p.r(C)p.r(C)p.r(U)p.r(G)p.r(C)p.r(U)p.r(G)p.r(C)p.d(T)p.d(T)}|RNA2{r(G)p.r(C)p.r(A)p.r(G)p.r(C)p.r(A)p.r(G)p.r(G)p.r(U)p.r(C)p.r(C)p.r(A)p.r(U)p.r(G)p.r(G)p.r(C)p.r(G)p.r(U)p.r(U)p.d(G)p.d(C)}$$$RNA1{StrandType:ss}|RNA2{StrandType:as}$
Assigned class: 0 (no)

---

# Target entity: P2RX3
# Test details: reporter assay of Huesken 2005
# Condition details: siRNA
Oligonucleotides are written 5' to 3', each unit as a sugar letter and its base; * is a phosphorothioate linkage, no mark a phosphodiester; rarer units and linkages stand in square brackets, end groups in braces. Plain capitals give the bases only. d = 2'-deoxy (DNA); r = 2'-OH (RNA)
Reported metric: normalised inhibition (eCFP-eYFP dual reporter) (%)

Substance: sense rCrArUrCrArUrCrCrCrCrArCrCrArUrCrArUrCdTdT / antisense rGrArUrGrArUrGrGrUrGrGrGrGrArUrGrArUrGdTdT
Value measured: 38.5
--
Substance: sense rUrCrGrGrCrUrGrGrGrUrGrUrGrCrGrArCrUrUdTdT / antisense rArArGrUrCrGrCrArCrArCrCrCrArGrCrCrGrAdTdC
Value measured: 77.1
--
Substance: sense rArCrCrArUrCrGrGrGrArUrCrArUrCrArArCrCdTdT / antisense rGrGrUrUrGrArUrGrArUrCrCrCrGrArUrGrGrUdCdC
Value measured: 25.1
--
Substance: sense rCrCrArArGrArUrGrArUrUrGrUrUrArCrUrGrAdTdT / antisense rUrCrArGrUrArArCrArArUrCrArUrCrUrUrGrGdTdG
Value measured: 98.9
--
Substance: sense rArUrCrArArGrArArCrArGrCrArUrCrCrGrUrUdTdT / antisense rArArCrGrGrArUrGrCrUrGrUrUrCrUrUrGrArUdGdA
Value measured: 70.6
--
Substance: sense rGrArArGrCrUrGrArGrArArCrUrUrCrArCrUrAdTdT / antisense rUrArGrUrGrArArGrUrUrCrUrCrArGrCrUrUrCdCdA
Value measured: 88.8
